Below, each entry is listed alongside its reported Kd.
- Measured On: HLA-A*01:01
- Experiment: IEDB peptide-MHC binding, purified MHC/competitive/radioactivity; filed as Kd, often an IC50 or EC50 that approximates it; bounds were set here for any values at or beyond the usual limits of such assays
- Condition Summary: source organism: Mammarenavirus brazilense
The reply should be a number in nM, with the unit left off.

Input: Need Kd of `GSLLHGLWPY` , thanks.
Output: 496

Input: Need Kd of `ESAQPGLLSY` , thanks.
Output: 69.8

---

- Measured On: HLA-A*23:01
- Experiment: IEDB peptide-MHC binding, purified MHC/competitive/radioactivity; filed as Kd, often an IC50 or EC50 that approximates it; bounds were set here for any values at or beyond the usual limits of such assays
- Condition Summary: source organism: SARS coronavirus Tor2
Below, each entry is listed alongside its reported Kd.

{"columns": ["Sequence Record", "Measured On", "Kd"],
 "data": [
  ["ACADGTRHTY", "HLA-A*23:01", "≥ 70 µM"],
  ["PTLVPQEHY", "HLA-A*23:01", "≥ 77.8 µM"]
]}

Input: Need Kd of `ETLLPLTQY` , thanks.
Output: ≥ 77.8 µM

Input: Need Kd of `NSGPDDQIGY` , thanks.
Output: ≥ 70 µM

Input: Need Kd of `SYATHHDKF` , thanks.
Output: ≥ 90.7 µM

Input: Need Kd of `FYLYLTFYF` , thanks.
Output: ≥ 29.3 µM

Input: Need Kd of `RMYIFFASF` , thanks.
Output: 0.0753 µM

Input: Need Kd of `YSELRPDTRY` , thanks.
Output: ≥ 70 µM
